All values here come from patent US8975279B2.

Assay: Physical stability in glass vials at +5° C., air atmosphere
Assay type: physicochemical
Conditions: glass vials, +5° C., air atmosphere; 3 months
Measurement label: Sample appearance

CCN(C(=O)c1c(O)c2c(Cl)cccc2n(C)c1=O)c1ccccc1 [Batch 13, laquinimod monoethanolamine]; off-white powder
CCN(C(=O)c1c(O)c2c(Cl)cccc2n(C)c1=O)c1ccccc1 [Batch 15, laquinimod monoethanolamine]; off-white powder

---

Assay: Physical stability in glass vials at +5° C., air atmosphere
Format: physicochemical
Settings: glass vials, +5° C., air atmosphere; time 0 month
Measurement label: Sample appearance

Examples with their reported Sample appearance follow.
CCN(C(=O)c1c(O)c2c(Cl)cccc2n(C)c1=O)c1ccccc1 [Batch 10, laquinimod L-lysine]; White flowable powder
CCN(C(=O)c1c(O)c2c(Cl)cccc2n(C)c1=O)c1ccccc1 [Batch 8, laquinimod choline hydroxide]; White powder
CCN(C(=O)c1c(O)c2c(Cl)cccc2n(C)c1=O)c1ccccc1 [Batch 9, laquinimod L-lysine]; White flowable powder
CCN(C(=O)c1c(O)c2c(Cl)cccc2n(C)c1=O)c1ccccc1 [Batch 13, laquinimod monoethanolamine]; White powder

In: Fill in the blank: the reported Sample appearance of CCN(C(=O)c1c(O)c2c(Cl)cccc2n(C)c1=O)c1ccccc1 [Batch 15, laquinimod monoethanolamine] is ____.
Out: White powder

In: Fill in the blank: the reported Sample appearance of CCN(C(=O)c1c(O)c2c(Cl)cccc2n(C)c1=O)c1ccccc1 [Batch 1, laquinimod meglumine] is ____.
Out: White flowable powder

In: Fill in the blank: the reported Sample appearance of CCN(C(=O)c1c(O)c2c(Cl)cccc2n(C)c1=O)c1ccccc1 [Batch 7, laquinimod choline hydroxide] is ____.
Out: White powder

---

Assay: Aqueous solubility of laquinimod and its salts
Type: physicochemical
Details: water
Measurement label: Aqueous solubility (mg/ml H2O)

Examples with their reported Aqueous solubility follow.
CCN(C(=O)c1c(O)c2c(Cl)cccc2n(C)c1=O)c1ccccc1 [Batch 10, laquinimod L-lysine]; 1000
CCN(C(=O)c1c(O)c2c(Cl)cccc2n(C)c1=O)c1ccccc1 [Batch 1, laquinimod meglumine]; 1330
CCN(C(=O)c1c(O)c2c(Cl)cccc2n(C)c1=O)c1ccccc1 [Batch 4, laquinimod meglumine]; 1050

a. CCN(C(=O)c1c(O)c2c(Cl)cccc2n(C)c1=O)c1ccccc1 [Batch 8, laquinimod choline hydroxide]
b. CCN(C(=O)c1c(O)c2c(Cl)cccc2n(C)c1=O)c1ccccc1 [Batch 9, laquinimod L-lysine]
c. CCN(C(=O)c1c(O)c2c(Cl)cccc2n(C)c1=O)c1ccccc1 [Batch 15, laquinimod monoethanolamine]
In: Could you please sort these 3 entries by Aqueous solubility from high to low? Answer format: the labels, ordered as requested.
Out: a, b, c

---

Assay: Physical stability in glass vials at +5° C., air atmosphere
Type: physicochemical
Details: glass vials, +5° C., air atmosphere; 9 months
Measurement label: Sample appearance

CCN(C(=O)c1c(O)c2c(Cl)cccc2n(C)c1=O)c1ccccc1 [Batch 9, laquinimod L-lysine]; White flowable powder
CCN(C(=O)c1c(O)c2c(Cl)cccc2n(C)c1=O)c1ccccc1 [Batch 7, laquinimod choline hydroxide]; White powder
CCN(C(=O)c1c(O)c2c(Cl)cccc2n(C)c1=O)c1ccccc1 [Batch 10, laquinimod L-lysine]; White flowable powder
CCN(C(=O)c1c(O)c2c(Cl)cccc2n(C)c1=O)c1ccccc1 [Batch 8, laquinimod choline hydroxide]; White powder

---

Experiment: Physical stability in glass vials at +5° C., air atmosphere
Assay type: physicochemical
Conditions: glass vials, +5° C., air atmosphere; 5 months
Measurement label: Sample appearance

CCN(C(=O)c1c(O)c2c(Cl)cccc2n(C)c1=O)c1ccccc1 [Batch 8, laquinimod choline hydroxide]; White powder
CCN(C(=O)c1c(O)c2c(Cl)cccc2n(C)c1=O)c1ccccc1 [Batch 9, laquinimod L-lysine]; White flowable powder
CCN(C(=O)c1c(O)c2c(Cl)cccc2n(C)c1=O)c1ccccc1 [Batch 7, laquinimod choline hydroxide]; White powder
CCN(C(=O)c1c(O)c2c(Cl)cccc2n(C)c1=O)c1ccccc1 [Batch 10, laquinimod L-lysine]; White flowable powder
